Kindly supply the reported Mean 2 (mean of log2-transformed values, treatment; DMSO = 0) values for the records listed here.
- Test system: IRE1/XBP1s
- Assay Notes: XBP1 endoplasmic reticulum stress reporter assay (CMV-XBP-GLuc)
- Type: cell-based, human
- Condition Details: 10 uM; Figure S5; N = 3
Peptide text beside a SMILES is read from it. * marks the point of attachment. Cbz = O=C(OCc1ccccc1)*
Enter the number alone.

Give Mean 2 (mean of log2-transformed values, treatment; DMSO = 0) (IRE1/XBP1s) of the following compound: COc1ccc(/C=C2\CC(N)C/C(=C\c3ccc(OC)c(OC)c3)C2=O)cc1OC (stereo not shown) 0.2168

Same lookup for COc1ccc(/C=C2\CC(NC(=O)c3ccccn3)C/C(=C\c3ccc(OC)c(OC)c3)C2=O)cc1OC (stereo not shown) , please. 1.15

Same lookup for CC(C)C[C@@H](C=O)NC(=O)[C@H](CC(C)C)NC(=O)[C@H](CC(C)C)NC(=O)OCc1ccccc1 [MG132] (Cbz-Leu-Leu-Leu-aldehyde) , please. 3.956

Same lookup for COc1ccc(/C=C2\CC(NC(=O)C3CCCC3)C/C(=C\c3ccc(OC)c(OC)c3)C2=O)cc1OC (stereo not shown) , please. 1.744

###

- Tested on: HEK293 cells
- Assay Notes: alamarBlue cytotoxicity assessment in HEK293 cells
- Type: cell-based, human
- Condition Details: HEK293, alamarBlue, 16 h; concentration not given
Marks after values point to notes of the source that are not given here.
Property Label: Tox [% of ctrl.]

Reported Tox [% of ctrl.] for COc1ccc(/C=C2\CC(NC(=O)CN3CCN(C)CC3)C/C(=C\c3ccc(OC)c(OC)c3)C2=O)cc1OC (stereo not drawn) : what is it? 87% of ctrl.

Same lookup for COc1ccc(/C=C2\CN(C(=O)Cc3c[nH]cn3)C/C(=C\c3ccc(OC)c(OC)c3)C2=O)cc1OC , please. 78% of ctrl.

Same lookup for CCOC(=O)CCNC(=O)N1C/C(=C\c2ccc(OC)c(OC)c2)C(=O)/C(=C/c2ccc(OC)c(OC)c2)C1 , please. 82% of ctrl.

Same lookup for COc1ccc(/C=C2\CC(NC(=O)CCCN(C)C)C/C(=C\c3ccc(OC)c(OC)c3)C2=O)cc1OC (stereo not drawn) , please. 95% of ctrl.

Same lookup for COc1ccc(/C=C2\CC(NC(=O)Cc3c[nH]cn3)C/C(=C\c3ccc(OC)c(OC)c3)C2=O)cc1OC (stereo not drawn) , please. 96% of ctrl.

Same lookup for COc1ccc(/C=C2\CNC/C(=C\c3ccc(OC)c(OC)c3)C2=O)cc1OC , please. 73% of ctrl.

Same lookup for COc1ccc(/C=C2\CC(NC(=O)C3CCCC3)C/C(=C\c3ccc(OC)c(OC)c3)C2=O)cc1OC (stereo not drawn) , please. 81% of ctrl.

Same lookup for COc1ccc(/C=C2\CN(C(=O)Cn3ccnc3)C/C(=C\c3ccc(OC)c(OC)c3)C2=O)cc1OC , please. 78% of ctrl.

Same lookup for CCN(CC)CC(=O)NC1C/C(=C\c2ccc(OC)c(OC)c2)C(=O)/C(=C/c2ccc(OC)c(OC)c2)C1 (stereo not drawn) , please. 96% of ctrl.

Same lookup for COc1ccc(/C=C2\CN(C(=O)c3ncccc3C)C/C(=C\c3ccc(OC)c(OC)c3)C2=O)cc1OC , please. 73%* % of ctrl.

Same lookup for COc1ccc(/C=C2\CC(NC(=O)CN)C/C(=C\c3ccc(OC)c(OC)c3)C2=O)cc1OC.O=C(O)C(F)(F)F (stereo not drawn) , please. 90% of ctrl.

Same lookup for COc1ccc(/C=C2\CN(C(=O)CN3CCOCC3)C/C(=C\c3ccc(OC)c(OC)c3)C2=O)cc1OC.O=C(O)C(F)(F)F , please. 81% of ctrl.

Same lookup for COc1ccc(/C=C2\CC(NC(=O)c3ncccc3C)C/C(=C\c3ccc(OC)c(OC)c3)C2=O)cc1OC (stereo not drawn) , please. 75% of ctrl.

Same lookup for COc1ccc(/C=C2\CC(NC(=O)[C@@H]3CCCN3)C/C(=C\c3ccc(OC)c(OC)c3)C2=O)cc1OC.O=C(O)C(F)(F)F (stereo partly drawn) , please. 93% of ctrl.

Same lookup for COc1ccc(/C=C2\CN(C(=O)CCN(C)C)C/C(=C\c3ccc(OC)c(OC)c3)C2=O)cc1OC.O=C(O)C(F)(F)F , please. 92% of ctrl.
